Sourced from ChEMBL document CHEMBL2346534

- Test system: MDA-MB-231
- test: Cytotoxicity against human MDA-MB-231 cells assessed as cell growth at 10^-5 M after 48 hrs by SRB assay
- Format: functional
- measurement-conditions: MDA-MB-231, 48 h, read-out: Activity
// classify: if (growth at 10 µM < 90%) 1 (yes) else 0 (no)

# example entries with known answers
cpd_smiles=CCOC(=O)/C(C#N)=C\Nc1ccc2ncnc(Nc3ccc(Cl)cc3)c2c1 category_label="0 (no)"
cpd_smiles=C#Cc1cccc(Nc2ncnc3ccc(N/C=C(\C#N)C(=O)OCC)cc23)c1 category_label="0 (no)"
cpd_smiles=CCOC(=O)/C(C#N)=C\Nc1ccc2ncnc(Nc3ccc(Cl)cc3Cl)c2c1 category_label="1 (yes)"
cpd_smiles=NC(=O)Nc1ccc2ncnc(Nc3cccc(O)c3)c2c1 category_label="0 (no)"

Please let me know if CCOC(=O)/C(C#N)=C\Nc1ccc2ncnc(Nc3ccccc3Cl)c2c1 shows growth at 10 µM below 90%.
1 (yes)

---

- System: SK-OV-3
- test: Cytotoxicity against human SKOV3 cells assessed as cell growth at 10^-5 M after 48 hrs by SRB assay
- Assay type: functional
- measurement-conditions: SK-OV-3, 48 h, read-out: Activity
measurement-kind: growth at 10 µM (%)
Response body: numeric value in %, unit text excluded.

// worked examples, growth at 10 µM included
cpd_smiles=NC(=O)Nc1ccc2ncnc(Nc3cccc(O)c3)c2c1 recorded_measurement=87.5
cpd_smiles=CCOC(=O)/C(C#N)=C\Nc1ccc2ncnc(Nc3ccccc3Cl)c2c1 recorded_measurement=107
cpd_smiles=CCOC(=O)/C(C#N)=C\Nc1ccc2ncnc(Nc3ccc(Cl)cc3Cl)c2c1 recorded_measurement=97
cpd_smiles=CCOC(=O)/C(C#N)=C\Nc1ccc2ncnc(Nc3ccc(Cl)cc3)c2c1 recorded_measurement=85
cpd_smiles=C#Cc1cccc(Nc2ncnc3ccc(N/C=C(\C#N)C(=O)OCC)cc23)c1 recorded_measurement=97

Would you kindly look at the next entry?
What does the data say about its growth at 10 µM? Entry: NC(=O)Nc1ccc2ncnc(Nc3ccc(Cl)cc3)c2c1
30.2

---

Each entry below lists one item and its recorded growth at 10 µM value.
- Tested on: Malme-3M
- test: Cytotoxicity against human MALME-3M cells assessed as cell growth at 10^-5 M after 48 hrs by SRB assay
- Assay type: functional
- measurement-conditions: read-out: Activity
Response body: numeric value in %, unit text excluded.

// worked examples, growth at 10 µM included
cpd_smiles=CCOC(=O)/C(C#N)=C\Nc1ccc2ncnc(Nc3ccccc3Cl)c2c1 target_under_test=Malme-3M recorded_measurement=156
cpd_smiles=NC(=O)Nc1ccc2ncnc(Nc3cccc(O)c3)c2c1 target_under_test=Malme-3M recorded_measurement=121
cpd_smiles=NC(=O)Nc1ccc2ncnc(Nc3ccc(Cl)cc3)c2c1 target_under_test=Malme-3M recorded_measurement=117
cpd_smiles=CCOC(=O)/C(C#N)=C\Nc1ccc2ncnc(Nc3ccc(Cl)cc3)c2c1 target_under_test=Malme-3M recorded_measurement=142
cpd_smiles=C#Cc1cccc(Nc2ncnc3ccc(N/C=C(\C#N)C(=O)OCC)cc23)c1 target_under_test=Malme-3M recorded_measurement=119

Would you kindly look at the next entry?
What does the data say about its growth at 10 µM? Entry: CCOC(=O)/C(C#N)=C\Nc1ccc2ncnc(Nc3ccc(Cl)cc3Cl)c2c1
140

---

- Test system: SNB-19
- test: Cytotoxicity against human SNB19 cells assessed as cell growth at 10^-5 M after 48 hrs by SRB assay
- Assay type: functional
- measurement-conditions: SNB-19, 48 h, read-out: Activity
measurement-kind: growth at 10 µM (%)
Response body: numeric value in %, unit text excluded.

cpd_smiles=NC(=O)Nc1ccc2ncnc(Nc3cccc(O)c3)c2c1 recorded_measurement=93.1
cpd_smiles=CCOC(=O)/C(C#N)=C\Nc1ccc2ncnc(Nc3ccc(Cl)cc3Cl)c2c1 recorded_measurement=86.4
cpd_smiles=NC(=O)Nc1ccc2ncnc(Nc3ccc(Cl)cc3)c2c1 recorded_measurement=78.6
cpd_smiles=C#Cc1cccc(Nc2ncnc3ccc(N/C=C(\C#N)C(=O)OCC)cc23)c1 recorded_measurement=85.1
cpd_smiles=CCOC(=O)/C(C#N)=C\Nc1ccc2ncnc(Nc3ccccc3Cl)c2c1 recorded_measurement=94.5

Identify the measured growth at 10 µM of CCOC(=O)/C(C#N)=C\Nc1ccc2ncnc(Nc3ccc(Cl)cc3)c2c1 for SNB-19.
88
